- target: UniProt Q00987
- Sequence (Q00987 1-125): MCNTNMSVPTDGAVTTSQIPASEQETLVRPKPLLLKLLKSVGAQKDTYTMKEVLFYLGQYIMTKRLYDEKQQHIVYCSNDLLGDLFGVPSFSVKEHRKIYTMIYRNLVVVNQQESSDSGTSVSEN
- test.protocol: Competitive fluorescence polarization assay for MDM2
- Format: binding
- conditions: competitive FP assay, MDM2; read-out: Ki (MDM2)
Where a SMILES comes first, the peptide text is derived from it. Bridges are numbered along the chain shown (N, C = ends). [ ]: non-standard residue; d: D form. R8 = C=CCCCCCC[C@@](C)(N)C(=O)O; S5 = C=CCCC[C@](C)(N)C(=O)O; Ac3c = NC1(C(=O)O)CC1
property.name: Ki

compound="CCCC[C@H](NC(=O)[C@H](C)NC(=O)[C@H](CO)NC(=O)[C@]1(C)CCCC=CCCCCCC[C@@](C)(NC(=O)[C@H](Cc2ccccc2)NC(=O)[C@@H](NC(=O)[C@H](CC(C)C)NC(C)=O)[C@@H](C)O)C(=O)N[C@@H](CCC(=O)O)C(=O)N[C@@H](Cc2ccc(C(=O)O)cc2)C(=O)N[C@@H](Cc2c[nH]c3cc(Cl)ccc23)C(=O)N[C@@H](C)C(=O)N[C@@H](CCC(N)=O)C(=O)N[C@@H](CC2CCC2)C(=O)N1)C(=O)N[C@@H](C)C(N)=O (single isomer, unassigned)" value_reported="< 10 nM"

Then there is this compound:
// recorded Ki for CC(=O)N[C@@H](Cc1ccccc1)C(=O)N[C@]1(C)CCCCCCC=CCCC[C@@](C)(C(=O)N[C@@H](C)C(=O)N[C@@H](C)C(=O)N[C@@H](Cc2ccccc2)C(N)=O)NC(=O)[C@H](CC(C)C)NC(=O)C2(CC2)NC(=O)[C@H](CCC(=O)O)NC(=O)[C@H](Cc2c[nH]c3ccccc23)NC(=O)[C@H](Cc2ccc(O)cc2)NC(=O)[C@H](C)NC1=O [compound 18] (Ac-F[R8]AYWE[Ac3c]L[S5]AAF-NH2; staple 2-9) : < 10 nM
